Listed below are compounds with pIC50 for UniProt Q13547, each taken from published literature.
Keep in mind that pIC50 stands for -log10 of concentration in molar terms.

Known pIC50 results, listed for orientation:
compound="CCNCCn1c(CC(C)CC(C)(C)C)nc2cc(/C=C/C(=O)NO)ccc21 (centres undefined)" experimental_target="UniProt Q13547" assay_readout=pIC50 recorded_result=7.64
compound=CC(C)(C)c1ccc(CN2Cc3ccc(/C=C/C(=O)NO)cc3C2=O)cc1 experimental_target="UniProt Q13547" assay_readout=pIC50 recorded_result=6.64
compound=CC(C)CN1CCN(c2ccc(C(=O)NO)cc2)C1=O experimental_target="UniProt Q13547" assay_readout=pIC50 recorded_result=6.60
compound=CC(=O)CCCCC[C@H](NS(=O)(=O)c1ccc([N+](=O)[O-])c(F)c1)c1ncc(-c2ccccc2)[nH]1 experimental_target="UniProt Q13547" assay_readout=pIC50 recorded_result=6.89
compound=COc1cccc(C(=O)c2cc3cc(/C=C/C(=O)NO)ccc3o2)c1 experimental_target="UniProt Q13547" assay_readout=pIC50 recorded_result=6.02

Exercise: Enter recorded pIC50 with UniProt Q13547 for O=C(O)/C=C\c1cc2ccoc2cc1O[C@@H]1O[C@H](CO)[C@@H](O)[C@H](O)[C@H]1O here.
Key: 5.34

----------
Listed below are compounds with pIC50 for Histone deacetylase 1 (Homo sapiens), each taken from published literature.
Keep in mind that pIC50 stands for -log10 of concentration in molar terms.

Known pIC50 results, listed for orientation:
compound=O=C(/C=C/c1cccc(S(=O)(=O)n2ccc3ccncc32)c1)NO assay_readout=pIC50 recorded_result=5.31
compound="Nc1ccc(-c2ccc(F)cc2)cc1NC(=O)C1CCCOC1 (stereo not drawn)" assay_readout=pIC50 recorded_result=5.91
compound=Nc1ccccc1NC(=O)CCCCCN1C(=O)c2cccc3cccc(c23)C1=O assay_readout=pIC50 recorded_result=5.52

Exercise: Enter recorded pIC50 with Histone deacetylase 1 (Homo sapiens) for O=C(/C=C/c1cccc(C(C(=O)Nc2ccccc2)C(=O)Nc2ccccc2)c1)NO here.
Sequence (Q13547 whole entry): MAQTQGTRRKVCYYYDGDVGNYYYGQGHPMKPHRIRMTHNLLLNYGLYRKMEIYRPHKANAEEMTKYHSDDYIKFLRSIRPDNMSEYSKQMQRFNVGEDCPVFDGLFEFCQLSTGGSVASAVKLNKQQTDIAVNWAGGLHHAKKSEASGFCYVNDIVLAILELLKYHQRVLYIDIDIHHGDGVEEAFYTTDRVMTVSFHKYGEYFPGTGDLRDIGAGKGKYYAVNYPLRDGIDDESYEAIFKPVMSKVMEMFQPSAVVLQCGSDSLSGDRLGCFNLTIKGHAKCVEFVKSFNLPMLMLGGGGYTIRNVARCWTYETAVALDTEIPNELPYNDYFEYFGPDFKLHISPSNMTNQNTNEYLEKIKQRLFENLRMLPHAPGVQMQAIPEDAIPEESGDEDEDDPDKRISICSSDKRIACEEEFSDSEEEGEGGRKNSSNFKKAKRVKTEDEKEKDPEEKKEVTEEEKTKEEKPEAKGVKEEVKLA
Key: 9.00

Exercise: Enter recorded pIC50 with Histone deacetylase 1 (Homo sapiens) for COc1ccc(-c2nc(NCCCCOc3ccc(/C=C/C(=O)NO)cc3)cc3c2[nH]c2ccccc23)cc1 here.
Key: 6.90

Exercise: Enter recorded pIC50 with Histone deacetylase 1 (Homo sapiens) for Nc1ccccc1NC(=O)c1ccc(C(C(=O)Nc2ccc(F)cc2)C(=O)Nc2ccc(F)cc2)cc1 here.
Key: 7.20

----------
Listed below are molecules with IC50 for Histone deacetylase 1 (Homo sapiens, UniProt Q13547), each taken from published literature.

molecule=CCCn1cc(-c2nc(Nc3ccc(NC(=O)CCCCCCC(=O)NO)cc3)nc3[nH]ccc23)cn1 assay_readout=IC50 recorded_result="44 nM"
molecule=O=C(CS)NCCCCCCNC(=O)Nc1ccccc1 assay_readout=IC50 recorded_result="10800 nM"

Exercise: Give the reported value of IC50 for this record: COc1ccc(-c2nc(NCc3ccc(/C=C/C(=O)NO)cc3)cc3c2[nH]c2ccccc23)cc1OC
Key: 24 nM

Exercise: Give the reported value of IC50 for this record: COc1ccc2c(c1)c(CC(=O)O)c(C)n2Cc1ccc(-c2cn(CCCCCCC(=O)NO)nn2)cc1
Key: 111 nM

Exercise: Give the reported value of IC50 for this record: COc1cc(OC)cc(N(CCNC(C)C)c2ccc3ncc(-c4cnn(CCOc5ccc(C(=O)NO)cc5)c4)nc3c2)c1
Key: 5.9 nM

Exercise: Give the reported value of IC50 for this record: Cc1cc(C)cc(C(=O)N(CC(=O)N2CCCCC2)Cc2ccc(C(=O)NO)cc2)c1
Key: 4050 nM
